Source of measurements: patent US20230058171A1

METHOD: Preliminary pharmacokinetics in trial 1403-0001 (Arm A D1 q3w, Arm B D1 D8 q4w)
Format: in vivo, human
EXPERIMENTAL PARAMETERS: human, plasma, oral, 45 mg, Day 1, D1 D8 q4w (Arm B), gMean, N=2; read-out: t1/2 (converted)
Excerpt: Preliminary PK data were available from the first 45 treated patients in study 1403-0001. The exploratory PK analysis is based on planned blood sampling time-points and the results are subject to change because not all samples from these patients have been analyzed yet. Therefore, AUCs may be incomplete. […]
RECORDED ENDPOINT: half-life (h)
Numbers only, in h.

[in] Give the measured half-life for "Cc1c(C(=O)O)ccc2c3n(nc12)[C@@H]1[C@H](C3)N(CC2CC2)[C@@]2(C(=O)Nc3cc(Cl)ccc32)[C@H]1c1cccc(Cl)c1F"
[out] 30

* * *

METHOD: Preliminary pharmacokinetics in trial 1403-0001 (Arm A D1 q3w, Arm B D1 D8 q4w)
Assay type: in vivo, human
EXPERIMENTAL PARAMETERS: human, plasma, oral, 30 mg, Day 8, D1 D8 q4w (Arm B), gMean, N=3; read-out: AUC0-∞
RECORDED ENDPOINT: AUC(0-inf) (µM·h)
Numbers only, in µM·h.

[in] Provide one value: measured AUC(0-inf) of "Cc1c(C(=O)O)ccc2c3n(nc12)[C@@H]1[C@H](C3)N(CC2CC2)[C@@]2(C(=O)Nc3cc(Cl)ccc32)[C@H]1c1cccc(Cl)c1F"
[out] 64.8

* * *

METHOD: Preliminary pharmacokinetics in trial 1403-0001 (Arm A D1 q3w, Arm B D1 D8 q4w)
Assay type: in vivo, human
EXPERIMENTAL PARAMETERS: human, plasma, oral, 5 mg, Day 1, D1 D8 q4w (Arm B), gMean, N=3; read-out: t1/2 (converted)
RECORDED ENDPOINT: half-life (days)
Answers are plain numbers, in days.

[in] Please report the measured half-life for Cc1c(C(=O)O)ccc2c3n(nc12)[C@@H]1[C@H](C3)N(CC2CC2)[C@@]2(C(=O)Nc3cc(Cl)ccc32)[C@H]1c1cccc(Cl)c1F [MDM2-antagonist of formula I]
[out] 2.3

* * *

METHOD: Preliminary pharmacokinetics in trial 1403-0001 (Arm A D1 q3w, Arm B D1 D8 q4w)
Format: in vivo, human
EXPERIMENTAL PARAMETERS: human, plasma, oral, 20 mg, Day 8, D1 D8 q4w (Arm B), gMean, N=3; read-out: AUC0-∞
RECORDED ENDPOINT: AUC(0-inf) (µM·h)
Give bare numbers, in µM·h.

[in] Supply AUC(0-inf) value. Item: "Cc1c(C(=O)O)ccc2c3n(nc12)[C@@H]1[C@H](C3)N(CC2CC2)[C@@]2(C(=O)Nc3cc(Cl)ccc32)[C@H]1c1cccc(Cl)c1F"
[out] 61.1

* * *

METHOD: Preliminary pharmacokinetics in trial 1403-0001 (Arm A D1 q3w, Arm B D1 D8 q4w)
Assay type: in vivo, human
EXPERIMENTAL PARAMETERS: human, plasma, oral, 5 mg, Day 8, D1 D8 q4w (Arm B), gMean, N=3; read-out: Vz/F
RECORDED ENDPOINT: Vd/F (L)
Numbers only, in L.

[in] Tell us which Vd/F value is on record for Cc1c(C(=O)O)ccc2c3n(nc12)[C@@H]1[C@H](C3)N(CC2CC2)[C@@]2(C(=O)Nc3cc(Cl)ccc32)[C@H]1c1cccc(Cl)c1F [MDM2-antagonist of formula I]
[out] 29.2
